- system-tested: T1, UNK ZnF1-3 (human, UniProt Q9C0B0 31-174)
- T1 sequence: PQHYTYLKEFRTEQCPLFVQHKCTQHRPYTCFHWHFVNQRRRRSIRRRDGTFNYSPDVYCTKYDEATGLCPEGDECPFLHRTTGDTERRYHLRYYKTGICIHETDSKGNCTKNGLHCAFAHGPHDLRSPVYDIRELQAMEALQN
- method-summary: nsRBNS (natural sequence RNA bind-n-seq); RBNS binding buffer (assumed for nsRBNS): 25 mM Tris pH 7.5, 150 mM KCl, 3 mM MgCl2, 0.01% Triton X-100, 500 ug/ml BSA, 20 U/ml SUPERase-In, 4 C; UNK is unkempt and MSI1 is Musashi-1; names of the RNAs are library labels; protein concentration not given here; high values mean tight binding
Whole data set: some 24,000 sequences, median “enrichment r” near 0.99, cut for the highest 2% near 3.7. The full list was thinned out, with the highest values kept by preference.
measured-attribute: binding signal (enrichment R)

chr22:42024162:42024163:+_ENSG00000196419_ENST00000405878|hu_hu|FALSE|FALSE (ssRNA) RNA: GGGAGUUCUACAGUCCGACGAUCCUCAUCUUCACUCUGAGAUUCAAACAUAGCCUUGGAGGCAUCAACCAAAAAAAUCAAACUAUCUCUUCCUGAAUAUUUAUAGUCUCCACUUGCUUCAAGGUUCUCUUCUUGUUCUUCCUCCAACAGAGGAUUGAGCAUCA
1.1
chr2:202488911:202488912:-_ENSG00000155755_ENST00000286196|hu_hu|FALSE|FALSE (ssRNA) RNA: GGGAGUUCUACAGUCCGACGAUCUUUUAACAUUUUUCAUAAUAUUGAGAGAUGUUUCAGUAUUAUAUAAUCAAAAAAUCUAUUACAAAUACACAUGUAUACAUCUUAUAAAAAUACAUUUAAAAACAAAAAUGGGACAAAUACCAACAGAGGAUUGAGCAUCA
1.78
chr3:142455598:142455599:-_ENSMUSG00000004591_ENSMUST00000043812|mus_mus|FALSE|FALSE (ssRNA) RNA: GGGAGUUCUACAGUCCGACGAUCGUAGAGCAUUUGAUCAAAUUAUUUGUGAGACUUUUGAGGUACAGCUUUAGUGUUAUAAUAACUUUUUAUAAAAUAUAGACUGUUUUAUCAAAAAUAUUUAUACAUUCUGUUACAAUAUAUCAACAGAGGAUUGAGCAUCA
0.537
chr20:57609950:57609951:-_ENSG00000101166_ENST00000355937|hu_hu|FALSE|FALSE (ssRNA) RNA: GGGAGUUCUACAGUCCGACGAUCUGUUUUGAUCAAGUCACAUAGCCUUACACCAACUUAUCAAAAAAAAAAAAAAAAAAACUACCCAAAAUAUAGUUGUAUUUUUAAAAUAACAAAUAAAUAUAUAGUCAGUUUGGAGAGACCCAACAGAGGAUUGAGCAUCA
5.71
chr7:135612270:135612271:-_ENSG00000105887_ENST00000393085|hu_mus|hu_hu_hu_mus_False|8_18 (ssRNA) RNA: GGGAGUUCUACAGUCCGACGAUCGUUUUUUUCUGAGAUGUUAAAUAGUACUUCAGUGGAAAACAAAACUUAACCUUUUAUUAAUGCGUGUUGUACCAAAAGCAGACAUUUUAGCUUGCUUCCUUUACUCAAAAUAUCAUUAAGCAACAGAGGAUUGAGCAUCA
0.545
chr2:174291214:174291215:-_ENSMUSG00000016257_ENSMUST00000016401|mus_hu|motif|central (ssRNA) RNA: GGGAGUUCUACAGUCCGACGAUCUUGAUCAAGUCACAUAGCCUUACACCAACUUAUCAAAAAAAAAAAAAAAAAAACGGCCCAAAAUAUAGUUGUAUUUUUAAAAUAACAAAUAAAUAUAUAGUCAGUUUGGAGAGACCUGGACAACAGAGGAUUGAGCAUCA
8.06
chr14:57521665:57521666:+_ENSMUSG00000021945_ENSMUST00000022511|mus_mus|FALSE|FALSE (ssRNA) RNA: GGGAGUUCUACAGUCCGACGAUCAACAACGUCAUCAUCAUCUUCUACUGAUGAGUUCUGAAACUUACUAGAUCUAGACACUAAAGGAUUAGGUGGGCCACUAAAUGAAUUUCCUACGUUCGUGAGACUAGUUGCCAUGGCUGUCAACAGAGGAUUGAGCAUCA
1.09
